Test system: Rattus norvegicus
Test: Ability (% reversal in rats) to reverse electroconvulsive shock-induced amnesia in rodents at a dose of 0.10 (mg/kg) (following intramuscular dosing)
Assay type: functional
Residues, ends and D or L forms follow the SMILES beside them. *: point of attachment. Cbz = O=C(OCc1ccccc1)*; Boc = CC(C)(C)OC(=O)*
Provide the reported Reversal of each item.
Numbers only, in %.

Examples with answers:
>  <Compound>
CC(C)(C)OC(=O)NCCCC[C@H](NC(=O)[C@@H]1CCCN1C(=O)OCc1ccccc1)C(=O)NCC(N)=O (Cbz-Pro-Lys(Boc)-Gly-NH2)

>  <Value Unit>
%

>  <Reversal>
0

$$$$
>  <Compound>
CC(C)CC(CSCC(=O)O)NC(=O)C1CCC(=O)N1C(=O)OCc1ccccc1 (stereo unspecified)

>  <Value Unit>
%

>  <Reversal>
0

$$$$
>  <Compound>
CCCNC(=O)C(CC(C)C)SCC1CCCN1C(=O)OCc1ccccc1 (stereo unspecified)

>  <Value Unit>
%

>  <Reversal>
20

$$$$
>  <Compound>
O=C1COCC2CCCN12 (stereo unspecified)

>  <Value Unit>
%

>  <Reversal>
33

$$$$
>  <Compound>
CC(C)CC(CSCC(=O)O)NC(=O)c1ccccn1 (stereo unspecified)

>  <Value Unit>
%

>  <Reversal>
14

$$$$

Field: Reversal. Fill in for each record below.
1. NCCCC[C@H](NC(=O)[C@@H]1CCCN1)C(=O)NCC(N)=O (H-Pro-Lys-Gly-NH2)
2. CC(C)CC(OCC1CCCN1C(=O)OCc1ccccc1)C(=O)NCC(=O)O (stereo unspecified)
3. CC(C)CC(N)CN1CC(=O)NC(CC(C)C)C1 (stereo unspecified)

stdout:
1: 78; 2: 43; 3: 66

====

System: Rattus norvegicus
Test: Ability (% reversal in rats) to reverse electroconvulsive shock-induced amnesia in rodents at a dose of 0.010 (mg/kg) administered intramuscularly (im)
Type: functional
Non-standard residues stand in square brackets, D forms with d. Residues, ends and D or L forms follow the SMILES beside them. ξ: configuration not given here. *: point of attachment. Cbz = O=C(OCc1ccccc1)*; Boc = CC(C)(C)OC(=O)*; ξK = NCCCCC(N)C(=O)O
Provide the reported Reversal of each item.
Numbers only, in %.

>  <Compound>
CC(C)CC(CNCC(=O)O)NCC1CCCN1C(=O)OCc1ccccc1 (stereo not given)

>  <Reversal, %>
20

$$$$
>  <Compound>
CC(C)CC1CN(C[C@H](CC(C)C)NC(=O)[C@@H]2CCCN2C(=O)OCc2ccccc2)CC(=O)N1 (stereo not given in full)

>  <Reversal, %>
17

$$$$
>  <Compound>
CCCNC(=O)C(CC(C)C)SCC1CCCN1C(=O)OCc1ccccc1 (stereo not given)

>  <Reversal, %>
20

$$$$
>  <Compound>
O=C1COCC2CCCN12 (stereo not given)

>  <Reversal, %>
33

$$$$
>  <Compound>
CC(C)CC(COCC(=O)O)NC(=O)C1CCCN1C(=O)OCc1ccccc1 (stereo not given)

>  <Reversal, %>
0

$$$$

Field: Reversal. Fill in for each record below.
1. CC(C)CC(COCC(N)=O)NC(=O)C1CCCN1C(=O)OCc1ccccc1 (stereo not given)
2. CC(C)CC(NCC1CCCN1C(=O)OCc1ccccc1)C(=O)NCC(N)=O (stereo not given)
3. CC(C)C[C@H](NC(=O)[C@@H]1CCCN1)C(=O)NCC(N)=O (H-Pro-Leu-Gly-NH2)
4. Cc1ccc(S(=O)(=O)N2CCCC2CNC(CC(C)C)C(=O)NCC(=O)O)cc1 (stereo not given)
5. Cc1ccc(S(=O)(=O)N2CCCC2C(=O)NC(CNCC(=O)O)CC(C)C)cc1 (stereo not given)
6. Cc1ccc(C(=O)NC(CSCC(=O)O)CC(C)C)s1 (stereo not given)
7. NC(=O)COCC(Cc1ccccc1)NC(=O)C1CCCN1C(=O)OCc1ccccc1 (stereo not given)
8. CCSCCNC(=O)C(CC(C)C)SCC1CCCN1C(=O)OCc1ccccc1 (stereo not given)

stdout:
57
0
43
33
33
60
11
0

Field: Reversal. Fill in for each record below.
1. O=C(NC(Cc1ccccc1)CN1C(=O)C2CCCN2C(=O)C1Cc1c[nH]cn1)c1ccccc1 (stereo not given)
2. NCCCC[C@H](NC(=O)[C@@H]1CCCN1)C(=O)NCC(N)=O (H-Pro-Lys-Gly-NH2)
3. CC(C)CC(N)CN1CC(=O)NC(CC(C)C)C1 (stereo not given)

stdout:
0
78
83

Field: Reversal. Fill in for each record below.
1. CC(C)CC(CNCC(=O)O)NC(=O)C1CCC(=O)N1 (stereo not given)
2. CC(C)(C)OC(=O)NC(CCCCNC(=O)OCc1ccccc1)C(=O)NCC(N)=O (stereo not given) (Boc-[ξK](Cbz)-Gly-NH2)
3. CC(C)C[C@@H](CNCC(N)=O)NC(=O)[C@@H]1CCCN1C(=O)OCc1ccccc1
4. CC(C)CC(CSCC(=O)O)NC(=O)c1ccccn1 (stereo not given)

stdout:
[33, 47, 43, 0]

Each recorded value in this set is attributed to ChEMBL document CHEMBL1123291.
